# System: NCI/ADR-RES ovarian
# Experiment: NCI-60 one-dose screen, 48 h (100 = growth as untreated, 0 = no growth, -100 = all killed)
# Conditions: 10 µM
This is part of a sample that, as a whole, favours compounds with a hit. Of some 83,000 tested, about 20% had one in any assay.
Reported metric: growth (%)
Quick note: give the figure in %, leave out the unit.

A selection of reference data follows.
Smiles notation | growth / %
CCOC(=O)c1[nH]c(C)c(C(C)=O)c1C | 98
Cc1c(O)cnc2nn(-c3ccccc3)c(=N)n12 | 108
COc1cc2c3c(n(C)c(=O)c2cc1OC)-c1cc2c(cc1C3=O)OCO2 | 77.5
[O-][N+](=Nc1cccc(Cl)c1)c1cccc(Cl)c1 | 99
CC(C)CCCC(=O)O | 109
CCOC(=O)CNN | 112

Record request: growth value, item O=C(CCl)N1CCN(C/C=C/c2ccccc2)CC1
105
